Test system: SN12C renal
Assay: NCI-60 one-dose screen, 48 h (100 = growth as untreated, 0 = no growth, -100 = all killed)
Conditions: 10 µM unless noted
The panel holds about 83,000 compounds, 20% with a hit somewhere; the sample as a whole holds those more often. Active and inactive are the calls of the source. How the source made its calls: active means growth percent below 10; inactive means the rest.
assay-endpoint: growth

Please look at this compound and report its growth: Cc1ccc2c(c1)C13C(=C2Br)CCCN1C(=O)c1ccccc13 (centres undefined)
92.5% (inactive)

Give a short answer stating reported growth for "Cn1cc(CNc2nc3ccc(OC/C(=C/F)CN)cc3o2)ccc1=O" .
99.8% (inactive)

Note growth for the compound shown: "COc1ccc2c(c1)c(CC(=O)[Se]CC#N)c(C)n2C(=O)c1ccc(Cl)cc1"
74% (inactive)

Supply measured growth of "NS(=O)(=O)c1ccc(Nc2nc(SCC(=O)c3ccc(Cl)cc3)nc3c2CCCC3)cc1" in your reply.
25.6% (inactive)

Quick one: give measured growth for "O=C(CCn1c[n+](CC(=O)c2ccc(F)cc2)c2ccccc21)Nc1cccc2cccnc12"
94% (inactive)

Hello, please tell me recorded growth for this one: COC(=O)/C=C/c1c(C2(C)NC(=O)c3ccccc3N2)c(=O)oc2ccc(Cl)cc12 (centres undefined)
87.9% (inactive)

Provide one value: measured growth of "CC(C)c1ccc(NCc2cn(-c3ccc(C(=O)O)cc3)nc2-c2cc(C(F)(F)F)cc(C(F)(F)F)c2)cc1"
85.9% (inactive)

# return recorded growth for entry "CNC(=O)c1c(NC(=O)c2cccc(C(F)(F)F)c2F)sc2c1CCC(=O)C2"
10% (inactive)

Consider the compound "Cc1ccc(C2=Nn3c(nnc3-c3ccccc3)SC2)cc1" . State its measured growth.
47.5% (inactive)

State, in one line, measured growth of COc1c(N2CC3CCCNC3C2)c(F)cc2c(=O)c(C(=O)N/N=C/c3ccc(N(C)C)cc3)cn(C3CC3)c12 (centres undefined)
65.5% (inactive)

Give me measured growth, please, for this compound: "CNC(=O)c1cc(Oc2ccc3nc(NC(=O)c4cccc(OC(F)(F)F)c4)sc3c2)ccn1"
78.7% (inactive)

Indicate its recorded growth; the compound in question is "O=C(c1ccc(O)c(C(=O)N2Cc3ccc(OCCC[P+](c4ccccc4)(c4ccccc4)c4ccccc4)cc3C2)c1)N1Cc2cccc(F)c2C1"
88.6% (inactive)

For the compound "C=CCn1c(SCC(=O)Nc2ccc(C(=O)/C=C/c3ccc(Cl)cc3)cc2)nnc1-c1c[nH]c2ccccc12" , give its reported growth.
71.5% (inactive)

Complete the entry with growth for CCNC(=O)N1CCc2cc(OC)c(OCCc3ccc(OC)c(N)c3)cc2C1c1ccc(C)cc1C (centres undefined)
22.6% (inactive)

Identify growth associated with the compound "O=C1/C(=C/C=C/c2ccco2)SC(=S)N1C1CCCCC1"
83.4% (inactive)

# return recorded growth for input "CCCCCc1ccc(S(=O)(=O)Nc2cccc(-c3csc(NCCN4CCN(C)CC4)n3)c2)cc1"
90.6% (inactive)

// Input: "COc1ccc(-c2nc(C(Cl)Cl)nc3cc(-c4ccccc4)nn23)cc1" . Output its growth only.
29.1% (inactive)

Consider the compound COc1ccc(/C=N/NC2=NC3C(S2)N(C)C(=O)N3C)cc1 (centres undefined) and give its recorded growth.
44.3% (inactive)

Given "Cc1cc(-c2ccc(Cl)cc2)n(Cc2nnc(SCC(=O)Nc3ccc(S(N)(=O)=O)cc3)n2-c2ccc([N+](=O)[O-])cc2)n1" , respond with its growth.
82% (inactive)
